System: ATP;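 further: ATP exposure 15 min at 22 °C before imaging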
procedure details: switch fluorescence ratio, 500 uM ATP over buffer (Cy3 cluster intensity, sum of 5 cycles each) (fold (ratio)); higher = stronger signal-on switching upon ATP binding; sequences stand for … in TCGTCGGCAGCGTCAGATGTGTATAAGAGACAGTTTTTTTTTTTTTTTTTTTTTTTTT…TC
run parameters: aptamer strand: ATP DNA aptamer (quencher-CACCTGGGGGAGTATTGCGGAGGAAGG + anchor), 100 nM annealed; ATP concentration: 500 uM
switch fluorescence ratio overview

See these solved cases before continuing.
{"columns": ["sequence", "switch fluorescence ratio"],
 "data": [
  ["GGGCTAGGTT", 0.986],
  ["TTCTGGGGAT", 1.01]
]}

In plain terms, CATGGGAGAG has a documented switch fluorescence ratio of 1.05

The sequence identified as GCAGCCATAA registered its switch fluorescence ratio at 2.27

Summary for this sequence, CAGTGTGAAG : switch fluorescence ratio is 0.958

Record summary for CCAAAAGGCT : reported switch fluorescence ratio = 1.08
